Source: patent US20170114030A1

System: plasma active GLP-1
Assay: In vivo plasma active GLP-1 level-increasing action after oral administration
Design: species or system mice
Conditions: Experiment 10; mice; 10 mg/kg orally; 30 minutes; Student's t-test
test-readout: Significant difference (p < 0.05) vs control group, plasma active GLP-1 level

CCC(C)C1NC(=O)C(CC(N)=O)NC1=O (stereo not drawn) [compound 163]; Yes
CC(C)C1NC(=O)CNC1=O (stereo not drawn) [compound 155]; No
CCC(C)C1NC(=O)C(Cc2cnc[nH]2)NC1=O (stereo not drawn) [compound 148]; Yes

====

Test system: NCI-H716 cells
Assay: In vitro GLP-1 secretion-accelerating action (active GLP-1 ELISA)
Assay type: cell-based
Conditions: Experiment 5, cyclic dipeptide 10 mM with 10 μM Sitagliptin phosphate, after 1 hour, group with no cyclic dipeptide = 100
test-readout: Amount of active GLP-1 secreted (relative value to control group as 100), Average value
I'd appreciate a reply containing only the number, no unit.

Please review the entries below; each comes with its answer.
NC(=O)CCC1NC(=O)CNC1=O (stereo not drawn); 75
CC(C)CC1NC(=O)CNC1=O (stereo not drawn); 131

[in] // fetch NCI-H716 cells Amount of active GLP-1 secreted (relative value to control group as 100), Average value for O=C(O)CC1NC(=O)CNC1=O (stereo not drawn)
[out] 12

[in] // fetch NCI-H716 cells Amount of active GLP-1 secreted (relative value to control group as 100), Average value for O=C1NCC(=O)N2CCCC12 (stereo not drawn)
[out] 157

[in] // fetch NCI-H716 cells Amount of active GLP-1 secreted (relative value to control group as 100), Average value for O=C1CNC(=O)C(Cc2c[nH]cn2)N1 (stereo not drawn)
[out] 82

[in] // fetch NCI-H716 cells Amount of active GLP-1 secreted (relative value to control group as 100), Average value for O=C(O)CCC1NC(=O)CNC1=O (stereo not drawn)
[out] 89

====

Test system: plasma active GLP-1
Test: In vivo plasma active GLP-1 level-increasing action after oral administration
Set-up: species or system mice
Conditions: Experiment 7; male C57/BL6J mice; 10 mg/kg orally; blood after 30 minutes; 0.5% CMC-Na group = 100
# note: boundary value 400 maps to Not met; Plasma active GLP-1 level (relative value to control group as 100), Average value below it maps to Met

Record excerpt, results attached:
CC(C)C1NC(=O)C(Cc2ccc(O)cc2)NC1=O (stereo not drawn); Met
NC(=O)CC1NC(=O)C(Cc2ccc(O)cc2)NC1=O (stereo not drawn); Met
NC(=O)CCC1NC(=O)C(Cc2ccc(O)cc2)NC1=O (stereo not drawn); Met
O=C(O)CCC1NC(=O)C(Cc2ccc(O)cc2)NC1=O (stereo not drawn); Met
O=C(O)CC1NC(=O)C(Cc2ccc(O)cc2)NC1=O (stereo not drawn); Met

[in] Consider CC(O)C1NC(=O)C(Cc2ccc(O)cc2)NC1=O (stereo not drawn) . Does its Plasma active GLP-1 level (relative value to control group as 100), Average value lie strictly below 400?
[out] Not met

====

Test system: NCI-H716 cells
Test: In vitro GLP-1 secretion-accelerating action (active GLP-1 ELISA)
Format: cell-based
Settings: Experiment 2, 10 mM, 1 hour, Student's t-test
test-readout: Significant difference (p < 0.05) vs control group, amount of active GLP-1 secreted

Please review the entries below; each comes with its answer.
NCCCC[C@@H]1NC(=O)[C@H](Cc2ccccc2)NC1=O; Yes
O=C1N[C@@H](Cc2c[nH]c3ccccc23)C(=O)N[C@H]1CO; No
CC(C)C[C@@H]1NC(=O)[C@H](CCCCN)NC1=O; No
O=C1N[C@@H](Cc2c[nH]c3ccccc23)C(=O)N[C@H]1Cc1c[nH]cn1; Yes
NC(=O)CC[C@@H]1NC(=O)[C@H](Cc2ccccc2)NC1=O; Yes

[in] What Significant difference (p < 0.05) vs control group, amount of active GLP-1 secreted value was documented for this compound, O=C1N[C@@H](CO)C(=O)N2CCC[C@@H]12 ?
[out] No
